system: Caco-2; assay: cell viability relative to DMSO; higher = less toxic; conditions: 72 h; 1000 nM
measurement kind: cell viability (%)
Numbers only; they are read as %.

Look over these answered cases.
C[C@@H](Oc1ccc2[nH]nc(/C=C/c3cnn(CCO)c3)c2c1)c1c(Cl)cncc1Cl
83.3
CC(COc1ccccc1Cc1ccccc1)N1CCCCC1 (stereo not given)
100
N[C@]1(C(=O)O)CC[C@@H](C(=O)O)C1 [cis-ACPD]
104
CCOC(=O)/C=C(C)/C=C/C=C(C)/C=C/c1c(C)cc(OC)c(C)c1C [etretinate]
111
NCc1cc(O)no1
99.5
Cc1ccc(C(=O)Nc2ccc(CN3CCN(C)CC3)c(C(F)(F)F)c2)cc1C#Cc1cnc2[nH]ncc2c1
59

**Query** Write down the reported cell viability of `CC(C)(C)NC(=O)[C@@H]1C[C@@H]2CCCC[C@@H]2CN1C[C@@H](O)[C@H](Cc1ccccc1)NC(=O)[C@H](CC(N)=O)NC(=O)c1ccc2ccccc2n1` , test system: Caco-2.
**Result** 90.4

**Query** Note, next up: `Nc1ccc2ncnc(NCCc3ccc(Oc4ccccc4)cc3)c2c1`
**Result** 78.4

**Query** Note, next up: COc1cc(Oc2ccnc3cc(OC)c(OC)cc23)ccc1NC(=O)NC(C)c1nccs1 (stereo not given)
**Result** 97.2

**Query** Note, next up: `c1cc(Nc2cc(C3CC3)n[nH]2)nc(Nc2ccc3[nH]cnc3c2)n1`
**Result** 94.8

**Query** Note, next up: `C[C@H]1CNCCCN1S(=O)(=O)c1cccc2cncc(F)c12`
**Result** 99.2

**Query** Note, next up: `COc1cc2c(NC3CCN(C)CC3)nc(N3CCCN(C)CC3)nc2cc1OCCOCCN(C)C`
**Result** 102

**Query** Note, next up: CC(=O)Nc1ccc(OC(C)=O)cc1 [diacetamate]
**Result** 101

**Query** Note, next up: CC(C)(C)NCC(O)c1cc(Br)no1 (stereo not given)
**Result** 96.2

**Query** Note, next up: `S=C(NCCc1ccccn1)Nc1ccc(Br)cn1`
**Result** 90

**Query** Note, next up: `CCCCC#Cc1nc(NC)c2ncn([C@@H]3O[C@H](CO)[C@@H](O)[C@H]3O)c2n1`
**Result** 104

**Query** Note, next up: Brc1ccc(NC2C3CC4CC(C3)CC2C4)cc1 (stereo not given)
**Result** 99.9

**Query** Note, next up: `CCC(CC)[C@H](NC(C)=O)[C@@H]1[C@H](O)[C@@H](C(=O)O)C[C@H]1NC(=N)N`
**Result** 105

**Query** Note, next up: `COc1cccc2c1C(=O)c1c(O)c3c(c(O)c1C2=O)C[C@@](O)(C(=O)CO)C[C@@H]3O[C@H]1C[C@H](N)[C@H](O[C@@H]2CCCCO2)[C@H](C)O1`
**Result** 68.4

**Query** Note, next up: `Cc1cc(C(=O)Nc2nc3cccc(Cl)c3n2[C@@H]2CCCCN(C(=O)/C=C/CN(C)C)C2)ccn1`
**Result** 93.7

----------
test system: A549-ACE2; test: drug-induced phospholipidosis relative to tamoxifen; higher = more phospholipidosis; conditions: 0.3 µM; 72 h
measurement kind: drug-induced phospholipidosis (%)
Numbers only; they are read as %.

Look over these answered cases.
CC(=O)O[C@@H]1C[C@H]2C(C)(C)C(=O)C=C[C@]2(C)[C@H]2CC[C@@]3(C)[C@H](c4ccoc4)OC(=O)[C@H]4O[C@]43[C@@]21C [gedunin]
7.41
CN1CC2c3ccccc3Oc3ccc(Cl)cc3C2C1 (stereo not given) [asenapine]
4.59
C[C@@H]1CN(CCCn2c3ccccc3c3ccccc32)C[C@H](C)N1 [rimcazole]
8.99
O=c1cc(N2CCOCC2)oc2c(-c3cccc4c3sc3ccccc34)cccc12 [NU-7441]
-2.08

# evaluate next
**Query** Quick one: drug-induced phospholipidosis for Fc1ccc(-n2cc(CCCCN3CCC4(CC3)OCc3ccccc34)c3ccccc32)cc1 [siramesine] ?
**Result** 0.56

Reference for the values: the supplement of paper PMC13380429
